# System: CAKI-1 renal
# experiment: NCI tumour cell line growth inhibition, 48 h
*1 amine or outer side, *2 acyl side, *3 side chain or, on linkers, in order; H or OH if unused. Where a SMILES comes first, the peptide text is derived from it. Bridges are numbered along the chain shown (N, C = ends). [ ]: non-standard residue; d: D form. The star is where a group is joined. Phe(3-Me) = Cc1cccc(C[C@H](N)C(=O)O)c1; NH(4-Cl-2-F-phenyl) = Fc1cc(Cl)ccc1N*; Pro(4R-Me) = C[C@H]1CN[C@H](C(=O)O)C1; Hyp = O=C(O)[C@@H]1C[C@@H](O)CN1; aThr = C[C@H](O)[C@H](N)C(=O)O; Pip = O=C(O)[C@@H]1CCCCN1; CO = O=C([*:1])[*:2]
measurement name: GI50

Query block: Please give measured GI50 of the following entry: "Cc1cc(S(=O)(=O)NC#N)c(S/C(=N\Nc2ccc([N+](=O)[O-])cc2)c2ccccc2)cc1Cl"
Result block: 21.1 µM

Query block: Let me know recorded GI50 for Cc1cccc(C[C@H](NC(=O)Nc2ccc(Cl)cc2F)C(=O)N[C@@H]2C(=O)N3C[C@H](O)C[C@H]3C(=O)N3CCCC[C@H]3C(=O)N[C@@H](C)C(=O)N3C[C@H](C)C[C@H]3C(=O)O[C@H]2C)c1 ({NH(4-Cl-2-F-phenyl)-CO}-[Phe(3-Me)][aThr][Hyp][Pip]A[Pro(4R-Me)]; ester 2-C) , thanks.
Result block: 0.807 µM

Query block: Determine from records and report GI50 for "CC[O-].CC[O-].O=Nc1ccc2cc([O-])ccc2c1.O=Nc1ccc2cc([O-])ccc2c1.[Ti+4]"
Result block: 3.76 µM

====

# Test system: MALME-3M melanoma
# experiment: NCI tumour cell line growth inhibition, 48 h
measurement name: TGI

Query block: Provide only the value of recorded TGI for "O=C(CNC(=O)c1cccc2ccccc12)Nc1ccccc1Oc1ccccc1"
Result block: > 10 µM

Query block: Recall and state the measured TGI for Cc1cc2c(c(C#N)c1C)NC(=O)C(CC(=O)O)C2=O (stereo unspecified) .
Result block: > 100 µM

Query block: Fill in reported TGI for this entry: "C=C1CC(CNc2cc(Cl)nc(N)n2)C1"
Result block: > 100 µM

Query block: Return TGI (reported value) for this compound: "Cc1ccc(NNc2cc(=O)[nH]c(=O)[nH]2)cc1Cl"
Result block: 31.9 µM

Query block: Annotate the compound "CC1(C)OC[C@@]2([C@@H]3CC[C@@H](C3)C2(C)C)N1O" with its measured TGI.
Result block: > 100 µM

Query block: Identify the reported TGI for the following entry. "NNC(=O)CCCCCCCC(=O)O"
Result block: > 100 µM

Query block: Respond only with TGI recorded for "C/C(=N/NC(=S)N(Cc1ccccn1)Cc1ccccn1)c1cnccn1"
Result block: 7.53 µM

Query block: In one line, give reported TGI of the entry CCOP(=O)(OCC)C(Cc1ccccc1)N=C(c1ccccc1)c1ccccc1 (stereo unspecified) .
Result block: 40.9 µM

Query block: Kindly indicate its recorded TGI. Item: "Cc1nc(NC(=S)Nc2ccc(F)cc2)sc1C(=O)NNC(=S)Nc1ccc(F)cc1"
Result block: 35.5 µM

Query block: Let me know recorded TGI for "CCO[C@H]1C[C@@H](c2ccccc2)[C@]2(C)C[C@H](C(=O)OC)ON2O1" , thanks.
Result block: > 100 µM

Query block: Provide one value: measured TGI of "O/N=C1\CC2(N3CCOCC3)CCC1(Cc1ccccc1)CC2"
Result block: > 100 µM
